Data origin: patent US20260285850A1

Tested on: barnyardgrass (Echinochloa crus-galli)
Assay: Test A postemergence application, visual injury rating 0-100
Format: in vivo
Settings: 31 g ai/ha, postemergence, 10 days, 0 = no effect, 100 = complete control
observable: Barnyardgrass plant response rating (0-100)
Answer with a number only.

The compound identified as COC(=O)C1C=CC(NC(=O)C2(C)CN(c3cc(F)cc(Cl)c3)C(=O)O2)C1 (stereo not drawn) [Compound 17] registered its Barnyardgrass plant response rating (0-100) at 100

The compound identified as CSCCOC(=O)C1=CCC(NC(=O)C2(C)CN(c3cc(F)cc(F)c3)C(=O)O2)C1 (stereo not drawn) [Compound 23] registered its Barnyardgrass plant response rating (0-100) at 100

The compound identified as COC(=O)C1CCC(NC(=O)C2(C)CN(c3cc(F)cc(F)c3)C(=O)O2)C1 (stereo not drawn) [Compounds 10] registered its Barnyardgrass plant response rating (0-100) at 60

The compound identified as CCOC(=O)C1CC(NC(=O)C2(C)CN(c3cc(F)cc(F)c3)C(=O)O2)CO1 (stereo not drawn) [Compound 31] registered its Barnyardgrass plant response rating (0-100) at 10

The compound identified as CC(C)OC(=O)C1C=CC(NC(=O)C2(C)CN(c3cc(F)cc(Cl)c3)C(=O)O2)C1 (stereo not drawn) [Compound 4] registered its Barnyardgrass plant response rating (0-100) at 100

The compound identified as CCOC(=O)C1=CCC(NC(=O)C2(C)CN(c3cc(F)cc(F)c3)C(=O)O2)C1 (stereo not drawn) [Compound 15] registered its Barnyardgrass plant response rating (0-100) at 100

The compound identified as CC1(C(=O)NC2CCC(C(=O)O)C2)CN(c2cc(F)cc(F)c2)C(=O)O1 (stereo not drawn) [Compound 9] registered its Barnyardgrass plant response rating (0-100) at 70

The compound identified as CC1(C(=O)NC2CC=C(C(=O)OCC(F)(F)F)C2)CN(c2cc(F)cc(F)c2)C(=O)O1 (stereo not drawn) [Compound 1] registered its Barnyardgrass plant response rating (0-100) at 100

The compound identified as CC1(C(=O)NC2C=CC(C(=O)OCc3ccc(F)cc3)C2)CN(c2cc(F)cc(F)c2)C(=O)O1 (stereo not drawn) [Compound 54] registered its Barnyardgrass plant response rating (0-100) at 70
